Source of measurements: PubChem BioAssay

- measured.target: Neurogenic locus notch homolog protein 2 (Homo sapiens) (UniProt Q04721)
- Sequence (Q04721 whole entry, looked up): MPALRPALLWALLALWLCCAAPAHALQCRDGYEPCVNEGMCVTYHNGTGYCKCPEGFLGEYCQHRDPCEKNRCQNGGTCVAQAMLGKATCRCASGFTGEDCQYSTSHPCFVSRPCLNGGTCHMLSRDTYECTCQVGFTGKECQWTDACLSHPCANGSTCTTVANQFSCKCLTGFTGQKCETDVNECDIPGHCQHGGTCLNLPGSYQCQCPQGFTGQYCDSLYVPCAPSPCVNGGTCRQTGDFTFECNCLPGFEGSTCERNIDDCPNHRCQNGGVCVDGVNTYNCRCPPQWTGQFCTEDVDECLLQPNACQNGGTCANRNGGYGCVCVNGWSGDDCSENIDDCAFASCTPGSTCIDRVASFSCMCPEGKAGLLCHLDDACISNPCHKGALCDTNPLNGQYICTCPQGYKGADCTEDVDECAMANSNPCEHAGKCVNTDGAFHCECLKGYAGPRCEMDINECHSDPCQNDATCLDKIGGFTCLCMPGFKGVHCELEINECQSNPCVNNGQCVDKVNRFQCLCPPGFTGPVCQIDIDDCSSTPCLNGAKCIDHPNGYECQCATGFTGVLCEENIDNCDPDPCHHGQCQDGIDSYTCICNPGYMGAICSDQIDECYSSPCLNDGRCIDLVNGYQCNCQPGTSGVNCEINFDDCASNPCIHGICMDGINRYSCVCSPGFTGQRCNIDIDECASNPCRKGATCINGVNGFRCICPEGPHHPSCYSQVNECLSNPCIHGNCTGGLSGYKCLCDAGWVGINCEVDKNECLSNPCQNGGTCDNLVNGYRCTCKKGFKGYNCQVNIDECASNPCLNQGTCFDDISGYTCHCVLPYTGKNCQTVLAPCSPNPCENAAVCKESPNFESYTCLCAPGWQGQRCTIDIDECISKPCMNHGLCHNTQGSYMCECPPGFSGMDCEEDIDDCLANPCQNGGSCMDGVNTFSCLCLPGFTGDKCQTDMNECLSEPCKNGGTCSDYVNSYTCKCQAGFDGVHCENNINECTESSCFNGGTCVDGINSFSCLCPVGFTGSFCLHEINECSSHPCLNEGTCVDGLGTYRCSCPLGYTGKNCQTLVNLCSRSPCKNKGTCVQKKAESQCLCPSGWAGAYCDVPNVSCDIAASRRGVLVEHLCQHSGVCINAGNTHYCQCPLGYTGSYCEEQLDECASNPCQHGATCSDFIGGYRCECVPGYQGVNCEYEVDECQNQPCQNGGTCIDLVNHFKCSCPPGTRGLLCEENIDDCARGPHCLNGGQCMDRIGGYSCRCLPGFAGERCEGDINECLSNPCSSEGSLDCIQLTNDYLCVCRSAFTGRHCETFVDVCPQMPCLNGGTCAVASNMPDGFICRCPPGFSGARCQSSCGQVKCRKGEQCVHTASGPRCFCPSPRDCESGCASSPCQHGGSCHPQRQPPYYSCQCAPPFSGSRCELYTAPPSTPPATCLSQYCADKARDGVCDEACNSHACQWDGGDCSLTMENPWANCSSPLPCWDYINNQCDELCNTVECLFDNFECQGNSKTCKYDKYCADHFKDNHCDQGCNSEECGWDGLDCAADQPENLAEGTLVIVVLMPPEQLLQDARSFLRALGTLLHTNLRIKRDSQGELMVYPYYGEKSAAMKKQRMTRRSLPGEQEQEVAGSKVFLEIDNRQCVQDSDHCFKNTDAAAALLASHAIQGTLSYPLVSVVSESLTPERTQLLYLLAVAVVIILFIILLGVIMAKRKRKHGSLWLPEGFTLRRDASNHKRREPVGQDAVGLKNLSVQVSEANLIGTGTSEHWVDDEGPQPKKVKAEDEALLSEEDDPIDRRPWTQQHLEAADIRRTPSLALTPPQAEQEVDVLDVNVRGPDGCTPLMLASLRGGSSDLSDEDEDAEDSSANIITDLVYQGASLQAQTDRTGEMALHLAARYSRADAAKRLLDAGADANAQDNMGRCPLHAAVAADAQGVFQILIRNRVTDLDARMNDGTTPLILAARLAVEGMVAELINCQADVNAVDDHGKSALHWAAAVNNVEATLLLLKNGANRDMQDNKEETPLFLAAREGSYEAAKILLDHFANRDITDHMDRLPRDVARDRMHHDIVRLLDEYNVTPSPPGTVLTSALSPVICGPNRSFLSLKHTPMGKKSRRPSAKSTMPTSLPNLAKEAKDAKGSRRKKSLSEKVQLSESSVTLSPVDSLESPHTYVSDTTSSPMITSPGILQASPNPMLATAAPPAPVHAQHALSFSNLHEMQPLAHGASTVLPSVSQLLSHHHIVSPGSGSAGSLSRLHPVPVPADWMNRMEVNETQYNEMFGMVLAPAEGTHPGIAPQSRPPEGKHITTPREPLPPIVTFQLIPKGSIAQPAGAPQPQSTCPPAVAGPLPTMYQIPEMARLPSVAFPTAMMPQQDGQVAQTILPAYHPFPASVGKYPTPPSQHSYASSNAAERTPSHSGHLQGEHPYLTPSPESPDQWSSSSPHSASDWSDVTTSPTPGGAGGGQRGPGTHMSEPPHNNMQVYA
- assay.method.text: Notch2 binders on small-molecule microarrays, primary screen, biochemical, small-molecule microarray, 635 nm fluorescence, stem cell growth factors (AID 1073)
- experimental.parameters: Notch2 binding, higher = more signal
We'd kindly ask you to apply these composite z-score classes: low interval (below 0.3), middle interval (0.3 to below 1), high interval (1 or more)

Worked set:
compound	class.assignment
O=C1C2C=CC(C(O)c3ccccc3)N(n3cnnc3)C2C(=O)N1Cc1ccccc1 (centres undefined)	middle interval
C[C@H]1NC(=O)[C@@H](C)NC(=O)[C@@]23C(=O)N[C@@H](Cc4ccccc4)C2[C@H](C)[C@@]2(C)O[C@H]2C3/C=C/C/C=C\CNC1=O (some centres undefined)	low interval
CC(C)(C)OC(=O)CC[C@]1(C(=O)N2CCCCC2)N=C(c2ccc(OCCCO)cc2)O[C@H]1c1ccccc1	high interval
C=C[C@H](OC)[C@@H](OC(=O)Nc1ccc(SC)cc1)c1ccc(OC)c(O)c1	low interval
COc1ccc(CCN2C(=O)[C@@]3(c4ccc([N+](=O)[O-])cc4)CC(=O)N(CC45CC6CC(CC(C6)C4)C5)[C@@H]3c3ccc(CO)cc32)cc1	low interval

Input: Exam item: assign CC[C@H]1C2=C3C(CC[C@H]4C(OC)OC[C@](C)([C@@H]34)N(C(=O)OC(C)(C)C)C2)C(CO)C1CO (some centres undefined) to the correct category.
Output: high interval

Input: Exam item: assign NC(=O)NCC#Cc1ccc2c(c1)[C@]1(C(=O)N2)[C@H](c2ccccc2OCCO)N2[C@H](c3ccccc3)[C@H](c3ccccc3)OC(=O)[C@H]2[C@@H]1C(=O)N1CCN(c2ncccn2)CC1 to the correct category.
Output: middle interval

Input: Exam item: assign C=CCN1C(=O)[C@]2(O[C@H](CCn3cc(CCO)nn3)[C@@H]([Si](C)(C)c3ccc(OC)cc3)[C@@H]2C)c2cc(NC(=O)c3ccc(OC)cc3)ccc21 to the correct category.
Output: middle interval

Input: Exam item: assign C[C@@H]1NC(=O)CC=C[C@@H](C)[C@@H]2C=C[C@H](O)[C@@H](COC(=O)[C@H](C)NC(=O)CC=C[C@@H](C)[C@@H]3C=C[C@H](O)[C@@H](COC1=O)O3)O2 to the correct category.
Output: low interval

Input: Exam item: assign CCc1cccc(NC(=O)O[C@H]2[C@H](OC(=O)Nc3ccccc3)[C@@H](OC(=O)Nc3ccccc3)[C@@H](OC)O[C@@H]2CO)c1 to the correct category.
Output: high interval

Input: Exam item: assign CCOC(=O)C1=C[C@@H](c2ccccc2)N(S(=O)(=O)c2ccc(C)cc2)[C@H]1c1ccc(F)cc1 to the correct category.
Output: high interval

Input: Exam item: assign NC(=O)NCC#Cc1ccc2c(c1)[C@]1(C(=O)N2)[C@H](C(=O)N2CCCCCCC2)[C@H]2C(=O)O[C@H](c3ccccc3)[C@H](c3ccccc3)N2[C@@H]1c1ccccc1OCCO to the correct category.
Output: high interval

Input: Exam item: assign C=CCc1cccc([C@@H]2[C@@H](C)CC[C@H]3C(=O)N4[C@H](c5cccc(CC=C)c5)[C@@H](C)CC[C@H]4C(=O)N23)c1 to the correct category.
Output: high interval

###

- measured.target: Albumin (Bos taurus)
- assay.method.text: bovine serum albumin binders on microarray, profiling panel, artefact control for SMM control protein annotation, biochemical, small-molecule microarray, Alexa647 label, 635/667 nm fluorescence (AID 1118);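 note: score merges 667 nm emission intensity and signal-to-noise per printed compound spot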
- experimental.parameters: BSA-A647 binding, fluorescence 635 nm, higher = more signal
property.name: composite z-score
Just the number, please, no unit after it.

Recorded composite z-score, per entry:
> print(dat)
                                   compound  number
1  CCCNC(=O)[C@@]1(Sc2ccc(C)cc2)CC(=O)N(Cc2ccccc2Cl)[C@@H]1c1ccc(CO)cc1   0.694
2  COc1cc([C@@H]2N[C@H](C(=O)O)Cc3c2[nH]c2ccccc32)cc(OC)c1OC     0.1
3  COC(=O)Cn1c(C(=O)N2CCCC2)cc2c1C[C@H]1CN(C(=O)c3ccccc3)[C@@](Cc3ccc(OC)cc3)(C(=O)OC)[C@@H]21    0.92
4  C=C(CCCC)/C(=C/C[C@@H](OC(=O)c1ccncc1)c1ccc(CO)o1)c1cnc2ccccc2c1   0.667
5  C=CCc1cccc([C@@H]2[C@@H](C)CC[C@H]3C(=O)N4[C@H](c5cccc(CC=C)c5)[C@@H](C)CC[C@H]4C(=O)N23)c1   0.593

Here is another compound to look at.
Input: Form field: reported composite z-score of O=C/C=C/c1ccccc1Cl
Output: 0.95
